Task for the reader: assign each of the following compounds its reported AC50.
Biological target: Vasopressin V2 receptor (Homo sapiens); note: assay procedure not described here
Sequence (P30518 whole entry): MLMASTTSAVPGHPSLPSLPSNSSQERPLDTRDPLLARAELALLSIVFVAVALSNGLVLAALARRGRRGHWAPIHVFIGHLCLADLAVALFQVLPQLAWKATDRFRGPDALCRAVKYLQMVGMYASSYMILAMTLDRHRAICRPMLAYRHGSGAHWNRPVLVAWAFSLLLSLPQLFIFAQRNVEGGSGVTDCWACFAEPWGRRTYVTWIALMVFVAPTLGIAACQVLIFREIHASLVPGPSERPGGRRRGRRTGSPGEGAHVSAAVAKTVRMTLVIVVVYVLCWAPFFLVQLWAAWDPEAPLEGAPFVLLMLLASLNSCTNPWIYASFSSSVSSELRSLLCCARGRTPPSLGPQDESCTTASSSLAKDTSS

Below, each entry is followed by its recorded AC50 result.
Lookup result for C=CC[C@@H]1/C=C(\C)C[C@H](C)C[C@H](OC)[C@H]2O[C@@](O)(C(=O)C(=O)N3CCCC[C@H]3C(=O)O[C@H](/C(C)=C/[C@@H]3CC[C@@H](O)[C@H](OC)C3)[C@H](C)[C@@H](O)CC1=O)[C@H](C)C[C@@H]2OC [TACROLIMUS ANHYDROUS] ; measured AC50: > 30 µM

Lookup result for C#CCOc1ccc(N)cc1C(=O)NCCCC [PARSALMIDE] ; measured AC50: > 30 µM

Lookup result for Oc1ccc2c(c1)CC[C@H](c1ccccc1)[C@@H]2c1ccc(OCCN2CCCC2)cc1 ; measured AC50: 15 µM

Lookup result for C[C@H](Cc1ccc(O)c(O)c1)[C@@H](C)Cc1ccc(O)c(O)c1 ; measured AC50: > 10 µM

Lookup result for CCN(CC)CCNC(=O)c1cc(S(C)(=O)=O)ccc1OC [TIAPRIDE] ; measured AC50: > 30 µM

// input: 3 compounds below; output: AC50 for each
1. CN1C(C(=O)Nc2ccccn2)=C(O)c2ccccc2S1(=O)=O
2. CCC(=O)O[C@H]1CC[C@H]2[C@@H]3CCC4=CC(=O)CC[C@]4(C)[C@H]3CC[C@]12C [TESTOSTERONE PROPIONATE]
3. C=C1/C(=C\C=C2/CCC[C@]3(C)[C@@H]([C@H](C)/C=C/[C@@H](O)C4CC4)CC[C@@H]23)C[C@@H](O)C[C@@H]1O

Key:
1. > 10 µM
2. > 10 µM
3. > 30 µM

Lookup result for O=C1CN=C(c2ccccc2)c2cc([N+](=O)[O-])ccc2N1 ; measured AC50: > 10 µM

====

Below are molecules with their AC50 as measured on Gamma-aminobutyric acid receptor subunit alpha-1 (Rattus norvegicus).
Sequence (P62813 whole entry): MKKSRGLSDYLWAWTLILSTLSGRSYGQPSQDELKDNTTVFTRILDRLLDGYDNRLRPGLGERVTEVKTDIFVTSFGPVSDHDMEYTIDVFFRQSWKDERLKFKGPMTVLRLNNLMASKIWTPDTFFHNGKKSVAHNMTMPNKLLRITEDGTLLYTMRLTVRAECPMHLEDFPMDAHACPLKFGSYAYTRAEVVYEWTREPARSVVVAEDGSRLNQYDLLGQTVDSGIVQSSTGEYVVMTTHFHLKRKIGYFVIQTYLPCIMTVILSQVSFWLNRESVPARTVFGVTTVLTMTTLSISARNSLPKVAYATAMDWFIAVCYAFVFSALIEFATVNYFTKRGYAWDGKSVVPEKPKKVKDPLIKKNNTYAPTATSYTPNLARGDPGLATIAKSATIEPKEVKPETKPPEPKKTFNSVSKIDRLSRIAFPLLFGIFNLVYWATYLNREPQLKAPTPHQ

Below, each entry is followed by its recorded AC50 result.
Lookup result for CC(C)N(CCC(C(N)=O)(c1ccccc1)c1ccccn1)C(C)C (centres undefined) [DISOPYRAMIDE] ; measured AC50: > 10 µM

Lookup result for CN(C)CCCNc1c2ccccc2nc2cccc([N+](=O)[O-])c12 ; measured AC50: > 30 µM

Lookup result for O=C1CCc2cc(OCCCCc3nnnn3C3CCCCC3)ccc2N1 ; measured AC50: > 30 µM

Lookup result for Cc1ncc2n1-c1ccc(Cl)cc1C(c1ccccc1F)=NC2 ; measured AC50: > 10 µM

Lookup result for C[N@+]1(CCF)[C@@H]2CC[C@H]1C[C@@H](OC(=O)C(O)(c1ccccc1)c1ccccc1)C2 ; measured AC50: > 30 µM

Lookup result for CCC1(c2ccccc2)CCC(=O)NC1=O (centres undefined) [GLUTETHIMIDE] ; measured AC50: > 10 µM

// input: 8 molecules below; output: AC50 for each
1. Cc1noc(NS(=O)(=O)c2ccc(N)cc2)c1C
2. COc1ccc(-c2noc(CC(=O)O)c2-c2ccc(OC)cc2)cc1
3. OC[C@H]1O[C@@](CO)(O[C@H]2O[C@H](CO)[C@@H](O)[C@H](O)[C@H]2O)[C@@H](O)[C@@H]1O
4. CCC(COC(=O)c1cc(OC)c(OC)c(OC)c1)(c1ccccc1)N(C)C (centres undefined)
5. COCC1=C(C(=O)O)N2C(=O)[C@@H](NC(=O)/C(=N\OC)c3csc(N)n3)[C@H]2SC1
6. CN(C)CCc1c[nH]c2ccc(Cn3cncn3)cc12
7. CCCCC(=O)O[C@]1(C(=O)CO)[C@@H](C)C[C@H]2[C@@H]3CCC4=CC(=O)C=C[C@]4(C)[C@@]3(F)[C@@H](O)C[C@@]21C [BETAMETHASONE VALERATE]
8. OCc1cc(C(O)CNCCCCCCOCCCCc2ccccc2)ccc1O (centres undefined)

Key:
1: > 10 µM; 2: > 30 µM; 3: > 30 µM; 4: > 30 µM; 5: > 30 µM; 6: > 30 µM; 7: > 10 µM; 8: > 10 µM
